- System: Saccharomyces cerevisiae
- Test Name: protein stability index of tFT-peptide fusion (C-terminal peptide) (PSI (0-1 scale)); higher = more stable (slower turnover)
- Condition Parameters: genetic background: wild type; temperature: 37 C
# label = Condition met if protein stability index >= 0.4 else Condition not met

Past entries and their recorded results:
Sequence Content | Category
PVTAVYFVLYIW | Condition not met
RGSLLRWFLAAQ | Condition met
LVCSLLVPSSFF | Condition met
IIFWMWVIIRVY | Condition not met
LSRELRFVGFYH | Condition met
MSCILFCCLVPF | Condition met
TVCSWSALSRFM | Condition met
GVAFGLLVWLLG | Condition met
RIVLRPPFNSVA | Condition met
RIFRCYSFYVVV | Condition met

Is reported protein stability index greater than or equal to 0.4 here: `RVDVSVLWNRRS`
Condition met

Moving on to the next sequence: `RCSLFAKQVVSL`
Condition not met

Moving on to the next sequence: `INILVIWRKNHV`
Condition not met

Moving on to the next sequence: `FLSVGFSCSFVC`
Condition met

Moving on to the next sequence: `AASRVIYLLNLF`
Condition met

Moving on to the next sequence: `VCRCFPVCLFSF`
Condition met

Moving on to the next sequence: `MALAVRVVVCGA`
Condition not met

Moving on to the next sequence: `SFPPLPPLPLPP`
Condition met

----------
We begin with a simple list: items and their reported protein stability index.
- System: Saccharomyces cerevisiae
- Test Name: protein stability index of tFT-peptide fusion (C-terminal peptide) (PSI (0-1 scale)); higher = more stable (slower turnover)
- Condition Parameters: genetic background: wild type; temperature: 30 C
Form: value (number only, do not type unit).

Sequence Content | protein stability index
SPRSATAPPPLP | 0.71

Provide the documented protein stability index with Saccharomyces cerevisiae as the system for `FRRWHPPFFLFP`
0.713

Moving on to the next sequence: `CVWKWFSFSGGG`
0.69

Moving on to the next sequence: `PKKDNIQLQKPA`
0.694

Moving on to the next sequence: `YYAGFTAFGSLA`
0.709

Moving on to the next sequence: `PDLEMQMTRTRG`
0.701

----------
- System: Saccharomyces cerevisiae
- Test Name: protein stability index of tFT-peptide fusion (C-terminal peptide) (PSI (0-1 scale)); higher = more stable (slower turnover)
- Condition Parameters: genetic background: wild type; temperature: 30 C
Assay Readout: protein stability index
Form: value (number only, do not type unit).

Here's what some known entries look like.
Sequence Content | Assay Readout | Measurement
AAFHSSSAFFFN | protein stability index | 0.718
GSNCQVRMSIHR | protein stability index | 0.703
QVFFDTSDHRMG | protein stability index | 0.72
SLMLDGRSTKAA | protein stability index | 0.691

Provide the documented protein stability index with Saccharomyces cerevisiae as the system for `ERLRSDSLSYDI`
0.714

----------
We begin with a simple list: items and their reported protein stability index.
- System: Saccharomyces cerevisiae
- Test Name: protein stability index of tFT-peptide fusion in deletion strain of DOA10 (PSI (0-1 scale)); higher = more stable (slower turnover)
Form: value (number only, do not type unit).

Here's what some known entries look like.
Sequence Content | protein stability index
HVTRLDAIYFRI | 0.702
AITLPMCYLLLR | 0.638
AITLPFCPLLLR | 0.667
RVTRLDAIYFFI | 0.495
RSLYVLLPLYFR | 0.619

Provide the documented protein stability index with Saccharomyces cerevisiae as the system for `RVTRLDAIYFRY`
0.722

Moving on to the next sequence: `RVTRLDAIYFAI`
0.542

Moving on to the next sequence: `RVTRLDAIYFMI`
0.173

Moving on to the next sequence: `AITLPMCPLGLR`
0.683

Moving on to the next sequence: `FVTRLDAIYFRI`
0.549

Moving on to the next sequence: `RVTRLDAIYFRIL`
0.0992

Moving on to the next sequence: `RVTRLDAIYFVI`
0.233
